# EXPERIMENT_DESCRIPTION: Biodistribution in PC-3 tumor-bearing NRG mice (Example 1)
# Format: in vivo
# PARTICULARS: male, NRG (NOD.Cg-Rag1tm1Mom Il2rgtm1Wjl/SzJ), mouse, fat, iv, 1.84 MBq, total radioactivity; 120 min p.i.; read-out: Biodistribution Fat, Mean

MOLECULE	tissue uptake at 2 h / %ID/g
CC(C)C[C@@H](CN1CCC[C@H]1C(N)=O)NC(=O)[C@H](Cc1c[nH]cn1)NC(=O)CNC(=O)[C@@H](NC(=O)[C@H](C)NC(=O)[C@H](Cc1c[nH]c2ccccc12)NC(=O)[C@H](CCC(N)=O)NC(=O)[C@@H](Cc1ccccc1)NC(=O)COCC(=O)Nc1ccc(CNC(=O)CN2CCN(CC(=O)O)CCN(CC(=O)O)CCN(CC(=O)O)CC2)cc1)C(C)C [^68Ga-ProBOMB1, metal not drawn]	0.07
